// data source = patent US8247211B2

test system: Enterococcus sp.; assay: In vitro antibacterial evaluation: minimum inhibitory concentration (MIC), broth dilution method; type: cell-based; settings: Enterococcus faecalis (GC 2691); broth dilution, 18 hours at 35° C.
resultType: MIC Enterococcus faecalis (GC 2691)
Value and unit, in that order.

Solved entries (count: 3):
compound | valueReported
CC(c1ccccc1)C1NC(=O)CNC(=O)C(CO)NC(=O)C(CC2CN(Cc3ccccc3)C(=N)N2C2OC(CO)C(O)C(O)C2O)NC(=O)C(CC2CNC(=N)N2)NC(=O)C(Cc2ccc(OC3OC(CO)C(OC4OC5COC6(OC5C(O)C4O)C4CC5CC(C4)CC6C5)C(O)C3O)cc2)NC1=O (stereo not shown) [Example 80] | 64 µg/mL
CC(c1ccccc1)C1NC(=O)CNC(=O)C(CO)NC(=O)C(C(O)C2CNC(=N)N2C2OC(CO)C(O)C(O)C2O)NC(=O)C(C(O)C2CNC(=N)N2)NC(=O)C(Cc2ccc3oc(SCc4ccccc4)nc3c2)NC1=O (stereo not shown) [Example 45] | 32 µg/mL
CC(c1ccccc1)C1NC(=O)CNC(=O)C(CO)NC(=O)C(C(O)C2CN(Cc3ccc4ccccc4c3)C(=N)N2C2OC(CO)C(O)C(O)C2O)NC(=O)C(C(O)C2CNC(=N)N2)NC(=O)C(Cc2ccc(OC3OC(CO)C(OC4OC5COC6(OC5C(O)C4O)C4CC5CC(C4)CC6C5)C(O)C3O)cc2)NC1=O (stereo not shown) [Example 78] | 16 µg/mL

Turning now to a further compound:
I would be grateful if you could share the reported MIC Enterococcus faecalis (GC 2691) for CC(c1ccccc1)C1NC(=O)CNC(=O)C(CO)NC(=O)C(CC2CNC(=N)N2C2OC(CO)C(O)C(O)C2O)NC(=O)C(CC2CNC(=N)N2)NC(=O)C(Cc2ccc3oc(-c4ccc5c(c4)Cc4ccccc4-5)nc3c2)NC1=O (stereo not shown) [Example 42] .
8 µg/mL
